The following compounds are shown together with reported IC50 values.
# Test system: U-87 MG
# ASSAY NAME: Antiproliferative activity against human U-87-MG cells
# Type: functional, cell-based, U-87MG ATCC

# COMPOUND, IC50 [µM]
measured = [
    ("C[C@@H](O)c1cc2ccncc2c(=O)[nH]1", 7.9),
    ("COc1cc2c(cc1OC)-c1c3c(cc4c1[C@H](C2)N(C)CC4)OCO3 [DICENTRINE]", 4.73),
]

###

# Tested on: U-251
# ASSAY NAME: Cytotoxicity against human U-251MG cells assessed as reduction in cell growth incubated for 48 hrs by MTT assay
# Assay type: functional, cell-based
# CONDITION PARAMETERS: U-251, 48 h
pIC50: −log10 of the molar value.
MEASURE: pIC50

# CHEMICAL SMILES, TGT, MEAS VALUE
data = [
    ("CO[C@@H]1C=C[C@@]23c4cc5c(cc4CN(CCc4ccccc4)[C@@H]2CN(C)[C@H]3C1)OCO5", "U-251", 4.74),
    ("CO[C@@H]1C=C[C@@]23c4cc5c(cc4CN(CCc4ccc(O)cc4)[C@@H]2CN(C)[C@H]3C1)OCO5", "U-251", 4.33),
    ("CN[C@H]1C[C@H](OC)C=C[C@@]12C(=O)N(CCCC(=O)O)Cc1cc3c(cc12)OCO3", "U-251", 4.95),
]
